This collection of values is drawn from ChEMBL document CHEMBL4732189.

As shown below, each of these molecules has a reported pIC50 value.
# Tested on: CCRF-CEM
# measurement.protocol: Antiproliferative activity against human CCRF-CEM cells assessed as reduction in cell viability after 72 hrs by MTT assay
# Assay type: functional, cell-based
pIC50: −log10 of the molar value.
quantity.name: pIC50

>>> recorded_value("COc1cc(-c2cccn2-c2ccc(C)cc2)cc(OC)c1OC")
5.62
>>> recorded_value("CCOc1ccc(-c2c[nH]cc2-c2cc(OC)c(OC)c(OC)c2)cc1Cl")
6.82
>>> recorded_value("COc1cc(-c2c[nH]cc2-c2cc3ccccc3s2)cc(OC)c1OC")
6.81
>>> recorded_value("CCc1ccc(-c2c[nH]cc2-c2cc(OC)c(OC)c(OC)c2)cc1")
6.65
>>> recorded_value("COc1cc(-n2cccc2-c2cc(C)c(OC)c(C)c2)cc(OC)c1OC")
5.04
>>> recorded_value("CCOc1ccc(-c2c[nH]cc2-c2cc(OC)c(OC)c(OC)c2)cc1")
7.78
